Give U/mg NADH (specific activity) for every item shown.
# Test Description: KARI assay of purified S. exigua KARI and variants with NADH (Examples 6-9)
# Type: biochemical
# Condition Context: cofactor NADH
Answers are plain numbers, in U/mg.

Here's what some known entries look like.
Se1_KARI^4E10: S. exigua KARI variant L57V, R58P, S61C (protein, UniProt D0WGK0 1-342, looked up, variant L57V R58P S61C) Ketol-acid reductoisomerase …: MSVKTKEKEMAVTILYEQDVDPKVIQGLKVGIIGYGSQGHAHALNLMDSGVDVRVGVPEGCSSWKTAEEAGLKVTDMDTAAEEADVIMVLVPDEIQPKVYQEHIAAHLKAGNTLAFAHGFNIHYGYIVPPEDVNVIMCAPKGPGHIVRRQFTEGSGVPDLACVQQDATGNAWDIVLSYCWGVGGARSGIIKATFAEETEEDLFGEQAVLCGGLVELVKAGFETLTEAGYPPELAYFECYHEMKMIVDLMYESGIHFMNYSISNTAEYGEYYAGPKVINEQSREAMKEILKRIQDGSFAQEFVDDCNNGHKRLLEQREAINTHPIETTGAQIRSMFSWIKKED : 0.36
Se1_KARI^LE9-his6: S. exigua KARI variant I95T (protein, UniProt D0WGK0 1-342, looked up, variant I95T, His6 tag, S. exigua KARI variant I95T) Ketol-acid reductoisomerase …: MSVKTKEKEMAVTILYEQDVDPKVIQGLKVGIIGYGSQGHAHALNLMDSGVDVRVGLREGSSSWKTAEEAGLKVTDMDTAAEEADVIMVLVPDETQPKVYQEHIAAHLKAGNTLAFAHGFNIHYGYIVPPEDVNVIMCAPKGPGHIVRRQFTEGSGVPDLACVQQDATGNAWDIVLSYCWGVGGARSGIIKATFAEETEEDLFGEQAVLCGGLVELVKAGFETLTEAGYPPELAYFECYHEMKMIVDLMYESGIHFMNYSISNTAEYGEYYAGPKVINEQSREAMKEILKRIQDGSFAQEFVDDCNNGHKRLLEQREAINTHPIETTGAQIRSMFSWIKKED : 0.32
Se1_KARI^1AA10: S. exigua KARI variant S61C, S63D, I95T (protein, UniProt D0WGK0 1-342, looked up, variant S61C S63D I95T) Ketol-acid reductoisomerase …: MSVKTKEKEMAVTILYEQDVDPKVIQGLKVGIIGYGSQGHAHALNLMDSGVDVRVGLREGCSDWKTAEEAGLKVTDMDTAAEEADVIMVLVPDETQPKVYQEHIAAHLKAGNTLAFAHGFNIHYGYIVPPEDVNVIMCAPKGPGHIVRRQFTEGSGVPDLACVQQDATGNAWDIVLSYCWGVGGARSGIIKATFAEETEEDLFGEQAVLCGGLVELVKAGFETLTEAGYPPELAYFECYHEMKMIVDLMYESGIHFMNYSISNTAEYGEYYAGPKVINEQSREAMKEILKRIQDGSFAQEFVDDCNNGHKRLLEQREAINTHPIETTGAQIRSMFSWIKKED : 0.32

Here's the next entry for you.
U/mg NADH (specific activity) lookup needed for Se1_KARI^13G6: S. exigua KARI variant G60V, I95A (protein, UniProt D0WGK0 1-342, looked up, variant G60V I95A) Ketol-acid reductoisomerase …: MSVKTKEKEMAVTILYEQDVDPKVIQGLKVGIIGYGSQGHAHALNLMDSGVDVRVGLREVSSSWKTAEEAGLKVTDMDTAAEEADVIMVLVPDEAQPKVYQEHIAAHLKAGNTLAFAHGFNIHYGYIVPPEDVNVIMCAPKGPGHIVRRQFTEGSGVPDLACVQQDATGNAWDIVLSYCWGVGGARSGIIKATFAEETEEDLFGEQAVLCGGLVELVKAGFETLTEAGYPPELAYFECYHEMKMIVDLMYESGIHFMNYSISNTAEYGEYYAGPKVINEQSREAMKEILKRIQDGSFAQEFVDDCNNGHKRLLEQREAINTHPIETTGAQIRSMFSWIKKED , thanks.
0.30
